Reported inhibition at 0.04 µM is given for each of the following compounds.
tgt: CDK4 (Homo sapiens, UniProt P11802+Q16531)
Sequence (P11802 2-303 limits assumed): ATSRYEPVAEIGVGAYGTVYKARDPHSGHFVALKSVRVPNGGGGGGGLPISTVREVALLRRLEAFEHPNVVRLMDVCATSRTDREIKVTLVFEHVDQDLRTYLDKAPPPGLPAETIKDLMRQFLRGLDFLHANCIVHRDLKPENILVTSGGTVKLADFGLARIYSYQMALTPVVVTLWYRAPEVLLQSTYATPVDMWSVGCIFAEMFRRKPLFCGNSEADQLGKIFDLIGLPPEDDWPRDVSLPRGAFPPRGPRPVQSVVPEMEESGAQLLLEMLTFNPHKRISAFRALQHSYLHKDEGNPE
Sequence (P24385 whole entry partner): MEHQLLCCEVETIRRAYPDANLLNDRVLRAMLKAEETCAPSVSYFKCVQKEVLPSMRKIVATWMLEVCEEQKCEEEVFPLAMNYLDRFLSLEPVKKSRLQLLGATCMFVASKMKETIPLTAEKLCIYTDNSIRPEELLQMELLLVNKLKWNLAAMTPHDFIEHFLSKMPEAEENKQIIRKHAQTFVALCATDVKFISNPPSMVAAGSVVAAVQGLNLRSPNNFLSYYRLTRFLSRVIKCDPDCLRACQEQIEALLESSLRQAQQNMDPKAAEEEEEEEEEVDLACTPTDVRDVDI
Sequence (Q16531 2-1140 limits assumed): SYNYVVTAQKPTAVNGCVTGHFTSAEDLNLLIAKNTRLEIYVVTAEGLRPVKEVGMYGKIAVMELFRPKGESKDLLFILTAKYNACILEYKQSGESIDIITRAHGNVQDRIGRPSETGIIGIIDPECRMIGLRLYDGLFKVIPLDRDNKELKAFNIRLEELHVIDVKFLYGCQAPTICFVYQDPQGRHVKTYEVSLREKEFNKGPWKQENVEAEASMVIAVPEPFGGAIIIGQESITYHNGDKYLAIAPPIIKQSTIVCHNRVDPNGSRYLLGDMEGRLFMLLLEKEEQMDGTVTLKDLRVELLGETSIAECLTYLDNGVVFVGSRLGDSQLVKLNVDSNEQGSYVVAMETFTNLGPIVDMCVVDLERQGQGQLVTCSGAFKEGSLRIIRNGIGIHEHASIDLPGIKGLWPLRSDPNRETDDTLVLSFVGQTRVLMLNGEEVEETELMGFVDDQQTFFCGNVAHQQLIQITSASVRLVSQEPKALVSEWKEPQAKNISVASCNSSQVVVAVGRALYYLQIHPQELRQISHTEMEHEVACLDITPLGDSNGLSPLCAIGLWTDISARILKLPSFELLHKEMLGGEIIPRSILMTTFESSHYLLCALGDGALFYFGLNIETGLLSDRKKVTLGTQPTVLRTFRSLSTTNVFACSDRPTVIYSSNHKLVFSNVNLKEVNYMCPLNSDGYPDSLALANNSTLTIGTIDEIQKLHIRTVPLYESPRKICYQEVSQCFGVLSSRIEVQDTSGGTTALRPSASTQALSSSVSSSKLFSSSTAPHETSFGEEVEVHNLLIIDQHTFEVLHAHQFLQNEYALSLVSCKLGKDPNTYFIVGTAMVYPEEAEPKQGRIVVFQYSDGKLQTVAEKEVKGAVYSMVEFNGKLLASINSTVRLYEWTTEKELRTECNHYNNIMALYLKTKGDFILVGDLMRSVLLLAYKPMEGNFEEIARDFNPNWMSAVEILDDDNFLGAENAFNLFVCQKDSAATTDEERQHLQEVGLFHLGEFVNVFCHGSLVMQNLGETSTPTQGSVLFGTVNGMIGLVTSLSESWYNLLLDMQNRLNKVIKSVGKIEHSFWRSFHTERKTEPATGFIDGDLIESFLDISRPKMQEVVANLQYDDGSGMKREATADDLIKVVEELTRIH
assay_details: CDK4 percentage degradation in Calu-1 cells (Table 6)
Type: cell-based
Parameters: Cells that express cyclin D1-3 and CDK4/6 proteins were treated with heterobifunctional compounds; endogenous in cells; host or cells: Calu-1
experimental_parameters: 40 nM, 16 hours

INSERT INTO results (compound, observed) VALUES
  ('CNc1ccc(C(=O)Nc2ccc(N(C)C)nn2)c(NC2CC(CNC(=O)C3(CN4CCN(c5ccc(Nc6ncc7c(C)c(C(C)=O)c(=O)n(C8CCCC8)c7n6)nc5)CC4)CC3)C2)n1 (stereo not shown) [CPD-172]', '50 to 80%'),
  ('CNc1ccc(C(=O)Nc2ccc(N(C)C)nn2)c(NC2CC3(C2)CN(C(=O)CN2CCN(c4ccc(Nc5ncc6c(C)c(C(C)=O)c(=O)n(C7CCCC7)c6n5)nc4)CC2)C3)n1 [CPD-97]', '50 to 80%'),
  ('CNc1ccc(C(=O)NC2CC3(C2)CC(N(C)C)C3)c(NCCCCCNC(=O)CN2CCN(c3ccc(Nc4ncc5c(C)c(C(C)=O)c(=O)n(C6CCCC6)c5n4)nc3)CC2)n1 (stereo not shown) [CPD-67]', '< 30%'),
  ('CC(=O)c1c(C)c2cnc(Nc3ccc(N4CCN(CC(=O)NCC5CC(Nc6nc(NC(C)C)ccc6C(=O)Nc6cc(C)on6)C5)CC4)cn3)nc2n(C2CCCC2)c1=O (stereo not shown) [CPD-282]', '< 30%'),
  ('CNc1ccc(C(=O)Nc2cc(C)n(C)n2)c(NC2CC(CNC(=O)CN3CCN(c4ccc(Nc5ncc6c(C)c(C(C)=O)c(=O)n(C7CCCC7)c6n5)nc4)CC3)C2)n1 (stereo not shown) [CPD-165]', '50 to 80%'),
  ('CC(=O)c1c(C)c2cnc(Nc3ccc(N4CCN(CC(=O)NCCC5CC(Nc6cc(Cl)ccc6C(=O)Nc6ccc(C)c(C7CC7)n6)C5)CC4)cn3)nc2n(C2CCCC2)c1=O (stereo not shown) [CPD-255]', '< 30%'),
  ('CNc1ccc(C(=O)Nc2ccc(C#N)c(C3CC3)n2)c(NC2CC3(CC(NC(=O)CN4CCN(c5ccc(Nc6ncc7c(C)c(C(C)=O)c(=O)n(C8CCCC8)c7n6)nc5)CC4)C3)C2)n1 (stereo not shown) [CPD-132]', '< 30%'),
  ('CC(=O)c1c(C)c2cnc(Nc3ccc(N4CCN(CC5(C(=O)N6CC7(CC(Nc8nc(NC(C)C)ccc8C(=O)Nc8cn(C)c(C9CC9)n8)C7)C6)CC5)CC4)cn3)nc2n(C2CCCC2)c1=O [CPD-322]', '< 30%');

# input for lookup
[ask] What value of measured inhibition at 0.04 µM is listed for CNc1ccc(C(=O)Nc2ccc(N(C)C)nn2)c(NC2CC3(CC(CCCN4CCN(c5ccc(Nc6ncc7c(C)c(C(C)=O)c(=O)n(C8CCCC8)c7n6)nc5)CC4)C3)C2)n1 (stereo not shown) [CPD-83] ?
[reply] < 30%

---

tgt: CDK4 (Homo sapiens, UniProt P11802+Q16531)
assay_details: CDK4 percentage degradation in Calu-1 cells (Table 6)
Type: cell-based
Parameters: Cells that express cyclin D1-3 and CDK4/6 proteins were treated with heterobifunctional compounds; endogenous in cells; host or cells: Calu-1
experimental_parameters: 200 nM, 16 hours
recorded_endpoint: inhibition at 0.2 µM

INSERT INTO measurements (compound, observed) VALUES
  ('CC(=O)c1c(C)c2cnc(Nc3ccc(N4CCN(CC(=O)NCC5CC(Nc6nc(C7CC7)ccc6C(=O)Nc6cc(C)n(C)n6)C5)CC4)cn3)nc2n(C2CCCC2)c1=O (stereo not shown)', '50 to 80%');

[ask] What value of measured inhibition at 0.2 µM is listed for CNc1ccc(C(=O)Nc2ccc(N(C)C)nn2)c(NC2CC3(CC(CNC(=O)N4CCN(c5ccc(Nc6ncc7c(C)c(C(C)=O)c(=O)n(C8CCCC8)c7n6)nc5)CC4)C3)C2)n1 (stereo not shown) ?
[reply] 30 to 50%

[ask] What value of measured inhibition at 0.2 µM is listed for CCc1ccc(C(=O)Nc2cc(C)n(C)n2)c(NC2CC(CNC(=O)CN3CCN(c4ccc(Nc5ncc6c(C)c(C(C)=O)c(=O)n(C7CCCC7)c6n5)nc4)CC3)C2)n1 (stereo not shown) ?
[reply] 50 to 80%

[ask] What value of measured inhibition at 0.2 µM is listed for `CNc1ccc(C(=O)Nc2ccc(N(C)C)nn2)c(N2CCC(CCNC(=O)CN3CCN(c4ccc(Nc5ncc6c(C)c(C(C)=O)c(=O)n(C7CCCC7)c6n5)nc4)CC3)CC2)n1` ?
[reply] < 30%

---

Test system: T47D cells
assay_details: Anti-proliferation (viability) of ER+ breast cancer T47D cells, 6 days (Table 7, FIG. 2B)
Assay type: cell-based
experimental_parameters: Homo sapiens, 144 h; T47D cells, 6 days, 10-point serial dilution; read-out: GI IC50 in T47D
Description: To evaluate anti-proliferation activities of heterobifunctional compounds, NSCLC Calu-1 or ER+ breast cancer T47D cells were treated with selected heterobifunctional compounds following a 10-point serial dilution for 3 or 6 days, respectively. To verify that heterobifunctional compound-mediated degradation is dependent on the binding to CDK4-cyclin D complex, a negative control compound, CPD-143, which is derived from active heterobifunctional compound CPD-10 was designed. […]
Reported IC50 is given for each of the following compounds.

// solved cases for IC50 follow
INSERT INTO results (compound, recorded_endpoint, observed) VALUES
  ('CNc1ccc(C(=O)Nc2ccc(N(C)C)nn2)c(NCCCCNC(=O)CCN2CCN(c3ccc(Nc4ncc5c(C)c(C(C)=O)c(=O)n(C6CCCC6)c5n4)nc3)CC2)n1 [CPD-37]', 'IC50', '≥ 100 nM'),
  ('CCc1ccc(C(=O)Nc2ccc(N(C)C)nn2)c(NCCCCCNC(=O)CN2CCN(c3ccc(Nc4ncc5c(C)c(C(C)=O)c(=O)n(C6CCCC6)c5n4)nc3)CC2)n1 [CPD-54]', 'IC50', '50 to 100 nM'),
  ('CNc1ccc(C(=O)Nc2ccc(N(C)C)nn2)c(NC2CC(CC(=O)NCCN3CCN(c4ccc(Nc5ncc6c(C)c(C(C)=O)c(=O)n(C7CCCC7)c6n5)nc4)CC3)C2)n1 (stereo not shown) [CPD-101]', 'IC50', '50 to 100 nM');

# input for lookup
[ask] Which measured IC50 belongs to CNc1ccc(C(=O)Nc2cccc(C3CC3)n2)c(NCCCCCNC(=O)CN2CCN(c3ccc(Nc4ncc5c(C)c(C(C)=O)c(=O)n(C6CCCC6)c5n4)nc3)CC2)n1 [CPD-51] , tested on T47D cells?
[reply] 50 to 100 nM

---

tgt: CDK4 (Homo sapiens, UniProt P11802+Q16531)
assay_details: CDK4 percentage degradation in Calu-1 cells (Table 6)
Format: cell-based
Set-up: Cells that express cyclin D1-3 and CDK4/6 proteins were treated with heterobifunctional compounds; endogenous in cells; host or cells: Calu-1
experimental_parameters: 200 nM, 16 hours
recorded_endpoint: inhibition at 0.2 µM

INSERT INTO measurements (compound, tgt, observed) VALUES
  ('CNc1ccc(C(=O)Nc2ccc(N(C)C)nn2)c(NC2CCN(C(=O)CN3CCN(Cc4ccc(Nc5ncc6c(C)c(C(C)=O)c(=O)n(C7CCCC7)c6n5)nc4)CC3)CC2)n1 [CPD-300]', 'CDK4 (Homo sapiens, UniProt P11802+Q16531)', '< 30%'),
  ('CNc1ccc(C(=O)Nc2ccc(N(C)C)nn2)c(NC2CC(OCCC(=O)N3CCN(c4ccc(Nc5ncc6c(C)c(C(C)=O)c(=O)n(C7CCCC7)c6n5)nc4)CC3)C2)n1 (stereo not shown) [CPD-178]', 'CDK4 (Homo sapiens, UniProt P11802+Q16531)', '50 to 80%'),
  ('CC(=O)c1c(C)c2cnc(Nc3ccc(N4CCN(CC(=O)NCC5CC(Nc6nc(C(C)C)ccc6C(=O)Nc6cc(C)n(C)n6)C5)CC4)cn3)nc2n(C2CCCC2)c1=O (stereo not shown) [CPD-212]', 'CDK4 (Homo sapiens, UniProt P11802+Q16531)', '50 to 80%'),
  ('CNc1ccc(C(=O)Nc2ccc(N(C)C)nn2)c(NC2CC3(CC(NC(=O)CN4CCN(c5ccc(Nc6ncc7c(C)c(C(C)=O)c(=O)n(C8CCCC8)c7n6)nc5)CC4)C3)C2)n1 (stereo not shown) [CPD-39]', 'CDK4 (Homo sapiens, UniProt P11802+Q16531)', '50 to 80%'),
  ('CNc1ccc(C(=O)Nc2ccon2)c(NC2CC3(CC(NC(=O)CN4CCN(c5ccc(Nc6ncc7c(C)c(C(C)=O)c(=O)n(C8CCCC8)c7n6)nc5)CC4)C3)C2)n1 (stereo not shown) [CPD-159]', 'CDK4 (Homo sapiens, UniProt P11802+Q16531)', '50 to 80%');

[ask] What value of measured inhibition at 0.2 µM is listed for CNc1ccc(C(=O)Nc2ccc(N(C)C)nn2)c(NC2CC3(C2)CN(C(=O)C(C)CN2CCN(c4ccc(Nc5ncc6c(C)c(C(C)=O)c(=O)n(C7CCCC7)c6n5)nc4)CC2)C3)n1 (stereo not shown) [CPD-117] ?
[reply] 50 to 80%

[ask] What value of measured inhibition at 0.2 µM is listed for CNc1ccc(C(=O)Nc2ccc(N(C)C)nn2)c(NC(C)CCCCNC(=O)CN2CCN(c3ccc(Nc4ncc5c(C)c(C(C)=O)c(=O)n(C6CCCC6)c5n4)nc3)CC2)n1 (stereo not shown) [CPD-29] ?
[reply] > 80%

[ask] What value of measured inhibition at 0.2 µM is listed for CNc1ccc(C(=O)Nc2cccc(C)n2)c(NC2CC(NC(=O)CN3CCN(c4ccc(Nc5ncc6c(C)c(C(C)=O)c(=O)n(C7CCCC7)c6n5)nc4)CC3)C2)n1 (stereo not shown) [CPD-196] ?
[reply] 30 to 50%

[ask] What value of measured inhibition at 0.2 µM is listed for CNc1ccc(C(=O)NC2CC(CN(C)C)C2)c(NCCCCCNC(=O)CN2CCN(c3ccc(Nc4ncc5c(C)c(C(C)=O)c(=O)n(C6CCCC6)c5n4)nc3)CC2)n1 (stereo not shown) [CPD-65] ?
[reply] < 30%

[ask] What value of measured inhibition at 0.2 µM is listed for [2H]C([2H])([2H])Nc1ccc(C(=O)Nc2ccc(F)c(C3CC3)n2)c(NC2CC3(CC(NC(=O)CN4CCN(c5ccc(Nc6ncc7c(C)c(C(C)=O)c(=O)n(C8CCCC8)c7n6)nc5)CC4)C3)C2)n1 (stereo not shown) [CPD-239] ?
[reply] 50 to 80%

[ask] What value of measured inhibition at 0.2 µM is listed for [2H]C([2H])([2H])Nc1ccc(C(=O)Nc2ccc(N(C)C)nn2)c(NC2CC3(C2)CN(C(=O)CC(C)N2CCN(c4ccc(Nc5ncc6c(C)c(C(C)=O)c(=O)n(C7CCCC7)c6n5)nc4)CC2)C3)n1 (stereo not shown) [CPD-341] ?
[reply] < 30%

[ask] What value of measured inhibition at 0.2 µM is listed for CNc1ccc(C(=O)Nc2ccc(Cl)c(C3CC3)n2)c(NCCCCCNC(=O)CN2CCN(c3ccc(Nc4ncc5c(C)c(C(C)=O)c(=O)n(C6CCCC6)c5n4)nc3)CC2)n1 [CPD-112] ?
[reply] < 30%

[ask] What value of measured inhibition at 0.2 µM is listed for CNc1ccc(C(=O)Nc2ccc(N(C)C)nn2)c(NC2CC(CNC(=O)C3(CN4CCN(c5ccc(Nc6ncc7c(C)c(C(C)=O)c(=O)n(C8CCCC8)c7n6)nc5)CC4)CC3)C2)n1 (stereo not shown) [CPD-172] ?
[reply] 50 to 80%

[ask] What value of measured inhibition at 0.2 µM is listed for CNc1ccc(C(=O)Nc2ccc(C#N)c(C3CC3)n2)c(NC2CC3(CC(NC(=O)CN4CCN(c5ccc(Nc6ncc7c(C)c(C(C)=O)c(=O)n(C8CCCC8)c7n6)nc5)CC4)C3)C2)n1 (stereo not shown) [CPD-132] ?
[reply] 50 to 80%

[ask] What value of measured inhibition at 0.2 µM is listed for CNc1ccc(C(=O)Nc2ccc(F)c(C3CC3)n2)c(NC2CC3(CC(NC(=O)CN4CCN(c5ccc(Nc6ncc7c(C)c(C(C)=O)c(=O)n(C8CCCC8)c7n6)nc5)CC4)C3)C2)n1 (stereo not shown) [CPD-128] ?
[reply] 50 to 80%

[ask] What value of measured inhibition at 0.2 µM is listed for CC(=O)c1c(C)c2cnc(Nc3ccc(N4CCN(CC(=O)NC5CC6(C5)CC(Nc5nc(C)ccc5C(=O)Nc5cc(C)on5)C6)CC4)cn3)nc2n(C2CCCC2)c1=O (stereo not shown) [CPD-192] ?
[reply] < 30%
